- Tested on: iHeps in iMPCCs
- test-parameters: human, 6 days
Structures can show the parent of a compound that is named as a salt.
parameter: TC50 in MPCCs ATP (µM)
Write down the numeric answer in µM and omit the unit.

For NC(=O)NO [Hydroxyurea] on iHeps in iMPCCs, measured TC50 in MPCCs ATP was 49358.3

For O=c1n(CCCN2CCN(c3cccc(Cl)c3)CC2)nc2ccccn12 [Trazodone HCl] on iHeps in iMPCCs, measured TC50 in MPCCs ATP was 351.5

For O=C(O)c1cn(C2CC2)c2cc(N3CCNCC3)c(F)cc2c1=O [Ciprofloxacin HCl] on iHeps in iMPCCs, measured TC50 in MPCCs ATP was 804.2

For C=C[C@H]1C[N@@]2CC[C@H]1C[C@H]2[C@H](O)c1ccnc2ccc(OC)cc12 [Quinine] on iHeps in iMPCCs, measured TC50 in MPCCs ATP was 182.2

For Cc1cccc(Nc2ccccc2C(=O)O)c1C [Mefenamic acid] on iHeps in iMPCCs, measured TC50 in MPCCs ATP was 2551.9

###

- Tested on: iMPCCs
parameter: urea production in iMPCCs

Cc1c(C)c2c(c(C)c1O)CCC(C)(COc1ccc(CC3SC(=O)NC3=O)cc1)O2 (stereo not shown) [Troglitazone] ... declined significantly
Cc1ccc(C(=O)c2cc(O)c(O)c([N+](=O)[O-])c2)cc1 [tolcapone] ... declined significantly
CC(=O)Nc1ccc(O)cc1 [Acetaminophen] ... declined significantly

###

- System: iHeps in iMPCCs
- test-parameters: human, 6 days
Structures can show the parent of a compound that is named as a salt.
parameter: TC50 in MPCCs Albumin (µM)
Write down the numeric answer in µM and omit the unit.

For "COC(=O)Nc1nc2ccc(C(=O)c3ccccc3)cc2[nH]1" on iHeps in iMPCCs, measured TC50 in MPCCs Albumin was 1.9

For NC(=O)c1cnccn1 [Pyrazinamide] on iHeps in iMPCCs, measured TC50 in MPCCs Albumin was 33457.5

For O=c1n(CCCN2CCN(c3cccc(Cl)c3)CC2)nc2ccccn12 [Trazodone HCl] on iHeps in iMPCCs, measured TC50 in MPCCs Albumin was 205.5

For "CC/C(=C(\c1ccccc1)c1ccc(OCCN(C)C)cc1)c1ccccc1" on iHeps in iMPCCs, measured TC50 in MPCCs Albumin was 4.2

For CC(=O)O[C@]1(C(C)=O)CC[C@H]2[C@@H]3C=C(Cl)C4=CC(=O)[C@@H]5C[C@@H]5[C@]4(C)[C@H]3CC[C@@]21C [Cyproterone acetate] on iHeps in iMPCCs, measured TC50 in MPCCs Albumin was 51.0

For "CN(C)CCCN1c2ccccc2CCc2ccc(Cl)cc21" on iHeps in iMPCCs, measured TC50 in MPCCs Albumin was 9.4

For O=C(O)c1cn(C2CC2)c2cc(N3CCNCC3)c(F)cc2c1=O [Ciprofloxacin HCl] on iHeps in iMPCCs, measured TC50 in MPCCs Albumin was 525.3

For "Cc1cccc(Nc2ccccc2C(=O)O)c1C" on iHeps in iMPCCs, measured TC50 in MPCCs Albumin was 410.3

For NC(=O)NO [Hydroxyurea] on iHeps in iMPCCs, measured TC50 in MPCCs Albumin was 18398.4

For "CCOc1ccc(NC(C)=O)cc1" on iHeps in iMPCCs, measured TC50 in MPCCs Albumin was 1213.3

For "C=C[C@H]1C[N@@]2CC[C@H]1C[C@H]2[C@H](O)c1ccnc2ccc(OC)cc12" on iHeps in iMPCCs, measured TC50 in MPCCs Albumin was 115.7

###

Consider the following compounds; for each one, report its TC50 in MPCCs Urea.
- Test system: iHeps in iMPCCs
- test-parameters: human, 6 days
Structures can show the parent of a compound that is named as a salt.
Write down the numeric answer in µM and omit the unit.

Measured TC50 in MPCCs Urea, Cc1cccc(Nc2ccccc2C(=O)O)c1C [Mefenamic acid] : 572.3

Measured TC50 in MPCCs Urea, COC(=O)Nc1nc2ccc(C(=O)c3ccccc3)cc2[nH]1 [Mebendazole] : 2.3

Measured TC50 in MPCCs Urea, CCOc1ccc(NC(C)=O)cc1 [Phenacetin] : 253.3

Measured TC50 in MPCCs Urea, CN(C)CCCN1c2ccccc2CCc2ccc(Cl)cc21 [Clomipramine] : 13.8

Measured TC50 in MPCCs Urea, O=C(O)c1cn(C2CC2)c2cc(N3CCNCC3)c(F)cc2c1=O [Ciprofloxacin HCl] : 326.3

Measured TC50 in MPCCs Urea, O=c1n(CCCN2CCN(c3cccc(Cl)c3)CC2)nc2ccccn12 [Trazodone HCl] : 272.4

Measured TC50 in MPCCs Urea, C=C[C@H]1C[N@@]2CC[C@H]1C[C@H]2[C@H](O)c1ccnc2ccc(OC)cc12 [Quinine] : 127.9

Measured TC50 in MPCCs Urea, CC(=O)O[C@]1(C(C)=O)CC[C@H]2[C@@H]3C=C(Cl)C4=CC(=O)[C@@H]5C[C@@H]5[C@]4(C)[C@H]3CC[C@@]21C [Cyproterone acetate] : 33.1

Measured TC50 in MPCCs Urea, CC/C(=C(\c1ccccc1)c1ccc(OCCN(C)C)cc1)c1ccccc1 [Tamoxifen] : 11.7

###

Reported albumin production in iMPCCs, iMPCCs.
parameter: albumin production in iMPCCs

Cc1ccc(C(=O)c2cc(O)c(O)c([N+](=O)[O-])c2)cc1 ... declined significantly
CC(=O)Nc1ccc(O)cc1 ... declined significantly
Cc1c(C)c2c(c(C)c1O)CCC(C)(COc1ccc(CC3SC(=O)NC3=O)cc1)O2 (stereo not shown) ... declined significantly

###

Reported toxicity call in iCCs, iHeps in iCCs.
parameter: toxicity call in iCCs

NC(=O)c1cnccn1 [Pyrazinamide] ... non-toxic
CC(=O)O[C@]1(C(C)=O)CC[C@H]2[C@@H]3C=C(Cl)C4=CC(=O)[C@@H]5C[C@@H]5[C@]4(C)[C@H]3CC[C@@]21C [Cyproterone acetate] ... non-toxic
NNC(=O)c1ccncc1 [Isoniazid] ... non-toxic
